Listing of recorded MIC by entry.
- Test system: Gibberella fujiknroi
- protocol: Antifungal activity, MIC
- Type: cell-based
Report only the number, with the unit mg/L understood.

In [3]: df
Out[3]:
                                   molecule         target_entity  unit_text  value
0  CCCCCCCCCCCCCCOP(=O)([O-])OCC[n+]1ccccc1 [Production Example 2, Tetradecyl 2-pyridinioethyl phosphate]  Gibberella fujiknroi       mg/L     25
1  CCCCCCCC/C=C\CCCCCCCCOP(=O)([O-])OCC[N+](C)(C)C [Production Example 3, Oleyl 2-trimethylammonioethyl phosphate]  Gibberella fujiknroi       mg/L   12.5
2  CCCCCCCCCCCCCCOP(=O)([O-])OCC[N+](C)(C)C [Production Example 1]  Gibberella fujiknroi       mg/L     25
3  CCCCCCCCCCCCCCCCCCOP(=O)([O-])OCC[N+](C)(C)C [Production Example 6]  Gibberella fujiknroi       mg/L     50

Please examine the following record next.
Fill in the recorded MIC for this molecule, with Gibberella fujiknroi as test system: CC(C)CCCC(C)CCCC(C)CCCC(C)CCOP(=O)([O-])OCC[N+](C)(C)C (centres unmarked) [Production Example 7]
6.25

Ref: patent US4935520A
